Target System: human KDR protein in HEK-293 cells (Homo sapiens (Human))
Run Description: KDR Cell Assay (phospho-KDR in HEK-293 cells expressing inducible KDR)
Type: cell-based
Condition Details: pKDR Cell HEK 10% FBS IC50, HEK-293 cells expressing inducible KDR, VEGF stimulated
Procedure: The cellular potency of a compound inhibiting KDR kinase was determined in HEK-293 cells expressing an inducible human KDR protein. […] The cells were incubated for 1 hour with test compound in DMEM at a final DMSO concentration of 0.25%. […] The lysate was stored at −80° C. until ready for assay. Phospho-KDR was measured using a phospho-KDR kit (Catalog #K151BOC) purchased from Meso Scale Diagnostics (Rockville, Md.) according to the manufacturer's instructions. […]
Quick reference: IC50 of the listed items.
Response body: numeric value in µM, unit text excluded.

• Cn1cc(-c2cc(-c3ccc(N4CCN(Cc5cnccn5)CC4)nc3)c3c(C#N)cnn3c2)cn1 [Example 453] = 1.68
• Cn1cc(-c2cc(-c3ccc(N4CCC(O)(C(F)(F)F)CC4)nc3)c3c(C#N)cnn3c2)cn1 [Example 510, 2,2,2-trifluoroacetate] = 0.323
• Cn1cc(-c2cc(-c3ccc(N4CC5(CCOC5)C4)nc3)c3c(C#N)cnn3c2)cn1 [Example 528, 2,2,2-trifluoroacetate] = 1.67
• CCn1cc(CN2CCN(c3ccc(-c4cc(-c5cnn(C)c5)cn5ncc(C#N)c45)cn3)CC2)cn1 [Example 446] = 1.47

Which IC50 value belongs to Cn1cc(-c2cc(-c3ccc(N4CCN(C(=O)N5CCC(C6CC6)C5)CC4)nc3)c3c(C#N)cnn3c2)cn1 (stereo not shown) [Example 388] ?
0.346

Which IC50 value belongs to CN(C(=O)N1CCN(c2ccc(-c3cc(-c4cnn(C)c4)cn4ncc(C#N)c34)cn2)CC1)C1CC1 [Example 386, 2,2,2-trifluoroacetate] ?
1.41

Which IC50 value belongs to Cn1cc(-c2cc(-c3ccc(N4CCN(Cc5cc(F)ccc5F)CC4)nc3)c3c(C#N)cnn3c2)cn1 [Example 429] ?
1.56

====

Target System: human KDR protein in HEK-293 cells (Homo sapiens (Human), UniProt P35968)
Sequence (P35968 20-1356): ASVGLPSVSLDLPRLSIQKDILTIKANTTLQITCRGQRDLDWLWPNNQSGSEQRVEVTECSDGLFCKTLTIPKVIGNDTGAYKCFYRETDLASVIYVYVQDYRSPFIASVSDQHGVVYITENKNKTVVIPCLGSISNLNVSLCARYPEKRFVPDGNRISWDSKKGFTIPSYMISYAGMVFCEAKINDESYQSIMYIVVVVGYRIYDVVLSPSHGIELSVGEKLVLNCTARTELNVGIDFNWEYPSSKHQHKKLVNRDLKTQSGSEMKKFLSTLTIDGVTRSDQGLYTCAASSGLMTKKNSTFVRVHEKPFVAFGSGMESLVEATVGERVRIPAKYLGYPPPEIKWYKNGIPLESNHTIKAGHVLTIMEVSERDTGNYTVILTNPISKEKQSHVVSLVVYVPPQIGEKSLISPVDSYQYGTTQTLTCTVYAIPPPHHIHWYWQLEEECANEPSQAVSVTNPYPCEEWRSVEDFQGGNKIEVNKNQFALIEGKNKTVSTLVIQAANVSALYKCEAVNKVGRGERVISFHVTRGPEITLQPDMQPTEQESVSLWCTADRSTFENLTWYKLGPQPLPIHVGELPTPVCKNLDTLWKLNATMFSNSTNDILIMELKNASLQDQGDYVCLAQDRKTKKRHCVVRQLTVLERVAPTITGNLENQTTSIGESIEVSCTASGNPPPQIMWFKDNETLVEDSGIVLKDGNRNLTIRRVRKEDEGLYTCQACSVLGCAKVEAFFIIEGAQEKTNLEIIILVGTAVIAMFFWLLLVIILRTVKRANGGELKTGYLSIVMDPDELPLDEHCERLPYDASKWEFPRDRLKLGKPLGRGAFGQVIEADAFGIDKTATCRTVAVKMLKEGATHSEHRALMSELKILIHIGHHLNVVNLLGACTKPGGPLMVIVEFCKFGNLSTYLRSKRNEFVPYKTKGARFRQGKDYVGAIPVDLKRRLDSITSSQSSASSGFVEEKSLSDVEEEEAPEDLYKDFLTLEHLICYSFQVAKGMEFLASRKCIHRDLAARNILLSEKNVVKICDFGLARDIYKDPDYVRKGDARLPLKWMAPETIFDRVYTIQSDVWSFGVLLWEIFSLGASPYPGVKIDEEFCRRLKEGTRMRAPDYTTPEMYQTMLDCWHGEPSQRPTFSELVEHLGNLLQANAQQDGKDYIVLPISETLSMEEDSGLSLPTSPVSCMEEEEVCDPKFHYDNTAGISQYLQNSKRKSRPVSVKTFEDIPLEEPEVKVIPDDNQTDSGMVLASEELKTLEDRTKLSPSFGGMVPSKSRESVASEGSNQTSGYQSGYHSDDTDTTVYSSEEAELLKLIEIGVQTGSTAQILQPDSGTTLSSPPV
Run Description: KDR Cell Assay (phospho-KDR in HEK-293 cells expressing inducible KDR)
Format: cell-based
Condition Details: pKDR Cell HEK 10% FBS IC50, HEK-293 cells expressing inducible KDR, VEGF stimulated, 10% FBS
Property Measured: IC50 (nM)
Response body: numeric value in nM, unit text excluded.

* Cn1cc(-c2cc(-c3ccc(N4CCN(C(=O)OC(C)(C)C)CC4)cc3)c3c(C#N)cnn3c2)cn1 | 3440

Which IC50 value belongs to Cn1cc(-c2cc(-c3ccc(N4CCN(C(=O)[C@@H](N)c5ccccc5)CC4)nc3)c3c(C#N)cnn3c2)cn1 [Example 50, bis(2,2,2-trifluoroacetate)] ?
1190

Which IC50 value belongs to "Cn1cc(-c2cc(-c3ccc(N4CCN(S(=O)(=O)C5CCOCC5)CC4)nc3)c3c(C#N)cnn3c2)cn1" ?
60.1

Which IC50 value belongs to "CO[C@H]1CCN(C(=O)N2CCN(c3ncc(-c4cc(-c5cnn(C)c5)cn5ncc(C#N)c45)cn3)CC2)C1" ?
4830

Which IC50 value belongs to "Cn1cc(-c2cc(-c3ccc(N4CCN(S(=O)(=O)CC(C)(C)C)CC4)nc3)c3c(C#N)cnn3c2)cn1" ?
189

====

Target System: N-terminal GST tagged recombinant human RET cytoplasmic domain (aa 658-end), wild type RET kinase (Homo sapiens (Human))
Run Description: RET Enzyme Assay (HTRF KinEASE-TK), wild type RET
Format: biochemical
Condition Details: wild type RET, 1 mM ATP
Property Measured: log10 IC50 (log10 of the value in nM)
Recorded IC50 (log10, nM)

Illustrative cases are given below, each with its answer.
* Cn1cc(-c2cc(-c3ccc(N4CCC(C(=O)NCCC(F)(F)F)CC4)nc3)c3c(C#N)cnn3c2)cn1 | 0.65
* CC(C)OCCNC(=O)C1CCN(c2ccc(-c3cc(-c4cnn(C)c4)cn4ncc(C#N)c34)cn2)CC1 | 1.41
* COc1ccc(CN2CCN(c3ccc(-c4cc(-c5cnn(C)c5)cn5ncc(C)c45)cn3)CC2)cn1 | 1.66

Which log10 IC50 value belongs to "CCC1(C(=O)NCCC(F)(F)F)CCN(c2ccc(-c3cc(-c4cnn(C)c4)cn4ncc(C#N)c34)cn2)CC1" ?
0.96

====

Quick reference: log10 IC50 of the listed items.
Target System: Kif5b-RET fusion protein in HEK-293 cells (Homo sapiens, UniProt P07949)
Sequence (P07949 29-1114 limits assumed): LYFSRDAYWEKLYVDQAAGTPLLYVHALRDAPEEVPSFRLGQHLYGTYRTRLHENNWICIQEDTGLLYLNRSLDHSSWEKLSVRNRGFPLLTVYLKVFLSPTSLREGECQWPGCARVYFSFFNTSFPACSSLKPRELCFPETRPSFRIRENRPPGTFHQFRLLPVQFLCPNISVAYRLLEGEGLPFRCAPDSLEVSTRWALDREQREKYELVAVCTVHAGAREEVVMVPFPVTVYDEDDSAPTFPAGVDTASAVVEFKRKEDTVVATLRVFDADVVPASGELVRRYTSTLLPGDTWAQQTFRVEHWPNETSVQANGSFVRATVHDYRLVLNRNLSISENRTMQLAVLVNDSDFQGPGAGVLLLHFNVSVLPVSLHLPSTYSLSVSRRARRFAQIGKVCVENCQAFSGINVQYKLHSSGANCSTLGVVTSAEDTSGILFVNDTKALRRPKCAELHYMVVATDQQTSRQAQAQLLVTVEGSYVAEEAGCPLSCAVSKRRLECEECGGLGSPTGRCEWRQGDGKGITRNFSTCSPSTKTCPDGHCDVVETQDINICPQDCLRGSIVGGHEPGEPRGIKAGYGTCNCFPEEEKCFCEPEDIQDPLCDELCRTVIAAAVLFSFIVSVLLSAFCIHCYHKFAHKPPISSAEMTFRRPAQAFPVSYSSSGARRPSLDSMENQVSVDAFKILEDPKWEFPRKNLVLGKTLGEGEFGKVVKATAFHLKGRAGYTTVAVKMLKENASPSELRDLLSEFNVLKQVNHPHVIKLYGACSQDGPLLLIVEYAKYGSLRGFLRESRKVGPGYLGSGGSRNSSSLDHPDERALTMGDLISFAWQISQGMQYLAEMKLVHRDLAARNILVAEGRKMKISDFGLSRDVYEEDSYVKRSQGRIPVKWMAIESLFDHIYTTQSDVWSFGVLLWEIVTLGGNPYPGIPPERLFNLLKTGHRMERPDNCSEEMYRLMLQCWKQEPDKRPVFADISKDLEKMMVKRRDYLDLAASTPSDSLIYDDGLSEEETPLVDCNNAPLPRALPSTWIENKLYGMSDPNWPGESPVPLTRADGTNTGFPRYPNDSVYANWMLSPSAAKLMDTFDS
Run Description: cell-based
Condition Details: HEK-293 cells expressing Kif5b-RET, phospho-RET(Tyr1062); read-out: KIF5B-RET pTYR1062 Cell IC50
Recorded IC50 (log10, nM)

Illustrative cases are given below, each with its answer.
* Cn1cc(-c2cc(-c3ccc(N4CCN(C(=O)NC(C)(C)C)CC4)nc3)c3c(C#N)cnn3c2)cn1 | 1.05
* CC(C)(C)OC(=O)N1CCN(c2ccc(-c3cc(-c4cnn(C(F)F)c4)cn4ncc(C#N)c34)cn2)CC1 | 2.46

Which log10 IC50 value belongs to "CCN(C)C(=O)N1CCN(c2ccc(-c3cc(-c4cnn(C)c4)cn4ncc(C#N)c34)cn2)CC1" ?
1.08

Which log10 IC50 value belongs to "Cn1cc(-c2cc(-c3ccc(N4CCC(C)(NC(=O)OC(C)(C)C)CC4)nc3)c3c(C#N)cnn3c2)cn1" ?
0.85

Which log10 IC50 value belongs to "Cn1cc(-c2cc(-c3ccc(N4CCN(C(=O)CCS(C)(=O)=O)CC4)nc3)c3c(C#N)cnn3c2)cn1" ?
2.08

Which log10 IC50 value belongs to "CC(C)C[C@@H](O)C(=O)N1CCN(c2ccc(-c3cc(-c4cnn(C)c4)cn4ncc(C#N)c34)cn2)CC1" ?
1.00

Which log10 IC50 value belongs to "CC(C)C(=O)NC1(C)CCN(c2ccc(-c3cc(-c4cnn(C)c4)cn4ncc(C#N)c34)cn2)CC1" ?
0.72

====

Target System: human KDR protein in HEK-293 cells (Homo sapiens (Human))
Run Description: KDR Cell Assay (phospho-KDR in HEK-293 cells expressing inducible KDR)
Type: cell-based
Condition Details: pKDR Cell HEK 10% FBS IC50, HEK-293 cells expressing inducible KDR, VEGF stimulated, 10% FBS
Property Measured: pIC50
pIC50 is a log-scale quantity: -log10 of the concentration expressed in molar.

- CO[C@H]1CCN(C(=O)N2CCN(c3cnc(-c4cc(-c5cnn(C)c5)cn5ncc(C#N)c45)cn3)CC2)C1: 6.64
- CC(C)NC(=O)CN1CCN(c2ccc(-c3cc(-c4cnn(C)c4)cn4ncc(C#N)c34)cn2)CC1 [Example 144, 2,2,2-trifluoroacetate]: 5.77

Would you kindly look at the next entry?
Which pIC50 value belongs to Cn1cc(-c2cc(-c3ccc(N4CCN(C(=O)CN5CCOCC5)CC4)nc3)c3c(C#N)cnn3c2)cn1 [Example 362, bis(2,2,2-trifluoroacetate)] ?
5.73

====

Target System: Kif5b-RET fusion protein in HEK-293 cells (Homo sapiens, UniProt P07949)
Run Description: cell-based
Condition Details: HEK-293 cells expressing Kif5b-RET, phospho-RET(Tyr1062); read-out: KIF5B-RET pTYR1062 Cell IC50
Protocol: The cellular potency of a compound inhibiting RET kinase was determined in HEK-293 cells expressing a Kif5b-RET fusion protein. Briefly, HEK-293 cells expressing a Kif5b-RET fusion protein were plated at 50K cells/well in 96 well poly-D-Lysine coated plates the day prior to the assay. […] The plates were washed with PBS-0.05% Tween20, 100 μL PBS was added to each well, and the plates were read on a LI-COR Aerius fluorescent plate reader. […]
Property Measured: IC50 (nM)
Response body: numeric value in nM, unit text excluded.

Illustrative cases are given below, each with its answer.
* CCC(=O)N1CCN(c2ccc(-c3cc(-c4cnn(C)c4)cn4ncc(C#N)c34)cn2)CC1 | 60.7
* Cn1cc(-c2cc(-c3ccc(N4CCN(C(=O)C(C)(C)O)CC4)nc3)c3c(C#N)cnn3c2)cn1 | 76.1
* Cn1cc(-c2cc(-c3ccc(N4CCC(O)CC4)nc3)c3c(C#N)cnn3c2)cn1 | 45.5

Would you kindly look at the next entry?
Which IC50 value belongs to CC(O)CN(C)C(=O)C1CCN(c2ccc(-c3cc(-c4cnn(C)c4)cn4ncc(C#N)c34)cn2)CC1 (stereo not shown) ?
191

====

Target System: N-terminal GST tagged recombinant human RET cytoplasmic domain (aa 658-end), wild type RET kinase (Homo sapiens (Human))
Run Description: RET Enzyme Assay (HTRF KinEASE-TK), wild type RET
Format: biochemical
Condition Details: wild type RET, 1 mM ATP
Counter-ions that a name gives are not always drawn.
Property Measured: IC50
Please make sure the unit comes right after the number.

Illustrative cases are given below, each with its answer.
* CC(C)NS(=O)(=O)C1CCN(c2ccc(-c3cc(-c4cnn(C)c4)cn4ncc(C#N)c34)cn2)CC1 [Example 569] | 6.2 nM
* C[C@H](O)C(=O)NC1CCN(c2ccc(-c3cc(-c4cnn(C)c4)cn4ncc(C#N)c34)cn2)CC1 [Example 180] | 13.6 nM
* CCc1cnn2cc(-c3cnn(C)c3)cc(-c3ccc(N4CCNCC4)nc3)c12 [Example 657] | 140 nM
* CC(C)NC(=O)NC1CCN(c2ccc(-c3cc(-c4cnn(C)c4)cn4ncc(C#N)c34)cn2)CC1 [Example 187] | 15.9 nM
* COCC(=O)N1CCN(c2ccc(-c3cc(-c4cnn(C)c4)cn4ncc(Cl)c34)cn2)CC1 [Example 329] | 23.2 nM
* Cn1cc(-c2cc(-c3ccc(N4CCC(N)CC4)nc3)c3c(C#N)cnn3c2)cn1 [Example 177, dihydrochloride] | 47 nM
* CCN(C)C(=O)N1CCN(c2ccc(-c3cc(-c4cnn(C)c4)cn4ncc(C#N)c34)cn2)CC1 [Example 136] | 9.1 nM
* Cn1cc(-c2cc(-c3ccc(N4CCC(S(C)(=O)=O)CC4)nc3)c3c(C#N)cnn3c2)cn1 [Example 567] | 3.1 nM
* Cc1cnn2cc(-c3cnn(C)c3)cc(-c3ccc(N4CCNCC4)nc3)c12 [Example 651] | 208 nM
* COCC(C)(C)C(=O)N1CCN(c2ccc(-c3cc(-c4cnn(C)c4)cn4ncc(C#N)c34)cn2)CC1 [Example 352] | 13.9 nM

Which IC50 value belongs to C[C@@H](NC(=O)C1CCN(c2ccc(-c3cc(-c4cnn(C)c4)cn4ncc(C#N)c34)cn2)CC1)C(F)(F)F [Example 233] ?
13.6 nM
